// data source = paper PMC10122671

Molecular target: T1, IstA-MBP (Geobacillus stearothermophilus, UniProt Q45618 1-400)
T1 sequence: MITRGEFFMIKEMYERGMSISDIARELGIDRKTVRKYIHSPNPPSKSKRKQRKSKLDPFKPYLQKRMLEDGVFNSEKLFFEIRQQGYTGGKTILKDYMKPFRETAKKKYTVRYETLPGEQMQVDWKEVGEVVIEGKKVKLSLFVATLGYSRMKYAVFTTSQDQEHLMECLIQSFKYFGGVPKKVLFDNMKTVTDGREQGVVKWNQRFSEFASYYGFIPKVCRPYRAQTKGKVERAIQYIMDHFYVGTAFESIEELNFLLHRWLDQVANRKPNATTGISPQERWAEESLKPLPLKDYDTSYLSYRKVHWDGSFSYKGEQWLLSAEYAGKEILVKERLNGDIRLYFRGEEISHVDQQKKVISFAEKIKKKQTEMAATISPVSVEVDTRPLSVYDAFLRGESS
Assay: fluorescence anisotropy; apparent Kd; Hill coefficient 2.2; 5 mM Mg2+; Fluorescence anisotropy: 50 mM HEPES pH 7.5, 150 mM NaCl, 5 mM MgCl2, 10% glycerol, 1 mM beta-mercaptoethanol, 0.1 mg/ml BSA, 5 nM DNA, 37 °C, 5 min
Settings: protein: recombinant; tags: C-terminal TEV-cleavable MBP-His6; label: 5'-FAM on strand 1; blunt
experimental.endpoint: Kd
Write the figure, then the unit, nothing else.

Query :: Report Kd for Rd27 (dsDNA) DNA 1: TGCTAACACGTCGGATCATCGCAAGCA DNA 2: TGCTTGCGATGATCCGACGTGTTAGCA please.
Result :: 121 nM
